Species on record: Sus scrofa
Assay: Inhibition of porcine brain CK1delta/epsilon using RRKHAAIGpSAYSITA as substrate at 10 uM after 30 mins in presence of [gamma33P] ATP by scintillation counting
We use 80% as the dividing line for inhibition: on or above the line is YES, below is NO.

Could you tell me if the measured inhibition of Nc1ncc2c(-c3ccccc3)c3cnccc3c([N+](=O)[O-])c2n1 reaches 80% or more? NO

Could you tell me if the measured inhibition of Nc1ncc2c(Cc3ccccc3)c3cnccc3c(N)c2n1 reaches 80% or more? NO

Could you tell me if the measured inhibition of CCCCc1c2cnccc2c([N+](=O)[O-])c2nc(N)ncc12 reaches 80% or more? NO

Could you tell me if the measured inhibition of CCc1c2cnccc2c([N+](=O)[O-])c2nc(N)ncc12 reaches 80% or more? YES

Could you tell me if the measured inhibition of CCc1c2cnccc2c(N)c2nc(N)ncc12 reaches 80% or more? YES

Could you tell me if the measured inhibition of Nc1ncc2cc3cnccc3c([N+](=O)[O-])c2n1 reaches 80% or more? YES

Could you tell me if the measured inhibition of Nc1ncc2cc3cnccc3c(N)c2n1 reaches 80% or more? NO

Could you tell me if the measured inhibition of Cc1c2cnccc2c(N)c2nc(N)ncc12 reaches 80% or more? NO

Could you tell me if the measured inhibition of CCCCc1c2cnccc2c(N)c2nc(N)ncc12 reaches 80% or more? NO

Could you tell me if the measured inhibition of Nc1ncc2c(-c3ccccc3)c3cnccc3c(N)c2n1 reaches 80% or more? NO

Could you tell me if the measured inhibition of Cc1c2cnccc2c([N+](=O)[O-])c2nc(N)ncc12 reaches 80% or more? YES

Could you tell me if the measured inhibition of Nc1ncc2c(Br)c3cnccc3c([N+](=O)[O-])c2n1 reaches 80% or more? NO

Could you tell me if the measured inhibition of Nc1ncc2c(Cc3ccccc3)c3cnccc3c([N+](=O)[O-])c2n1 reaches 80% or more? NO
